B1: LINE1-full (parent)
chain: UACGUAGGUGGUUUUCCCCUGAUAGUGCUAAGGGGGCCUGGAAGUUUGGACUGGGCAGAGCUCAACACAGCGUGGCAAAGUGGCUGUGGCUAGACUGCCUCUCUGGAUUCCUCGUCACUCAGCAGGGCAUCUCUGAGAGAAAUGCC

variants of: B1; test: self-cleavage, relative activity (ratio to wild type); higher = more cleavage; in vitro, sequencing; the parent is a self-cleaving ribozyme

sequence_change	self-cleavage
A69C U132C	0
U39C A140U	1.22
A107G U108G	1.53
U85A U96C	0.09
A138G A141G	1.25
U73C G137U	2.46
U29C U39G	0.51
A77G A136U	1.92
C19U U115A	1.04
C113U G135A	1.18
G97A A117U	0.17
U5C A30G	0.74
G36A A59U	0.67
A77U C110U	0.94
U1G U132C	1.36
A24U G40A	0.71
A22G A77G	1.77
U130A A141G	1.46
U104C U134G	0.75
U100C U134A	1.83
U5C U39C	1.05
U52C A92U	0.52

Ref: the RNAGym collection of RNA variant scans (doi:10.7554/elife.90254)
